inhibition for assorted molecules
Target: Single-strand selective monofunctional uracil DNA glycosylase (Homo sapiens);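 note: enzymatic SMUG1 assay coupled with APE1, reading fluorescence at 594 nm released when a quenched double-stranded DNA oligonucleotide substrate is cleaved and separated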
Sequence (whole entry): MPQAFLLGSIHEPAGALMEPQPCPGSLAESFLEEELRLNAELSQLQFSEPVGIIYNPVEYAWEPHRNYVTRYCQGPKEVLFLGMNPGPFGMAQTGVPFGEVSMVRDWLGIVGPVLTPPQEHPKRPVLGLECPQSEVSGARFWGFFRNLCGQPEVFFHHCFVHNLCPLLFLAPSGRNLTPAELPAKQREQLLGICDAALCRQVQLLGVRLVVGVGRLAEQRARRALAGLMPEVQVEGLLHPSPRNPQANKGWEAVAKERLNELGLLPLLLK
Conditions: Compound Concentration 1.0 uM, Hit No
Description: Inhibition of SMUG1 by quantifying inhibition of SMUG1-mediated cleavage and dissociation of quenched duplex DNA oligonucleotides, measured as fluorescence at 594 nm. To generate a functional strand incision and increase turn-over this assay is coupled to APE1.
Return type: number; implicit unit %.

Give me measured inhibition, please, for this molecule: CN(C)C(=O)Cn1cc(-c2nc([C@@](C)(c3ccc(-c4cnc(N)nc4)cc3)C3CC3)no2)cn1 14.1

Give me measured inhibition, please, for this molecule: CNCc1ccccc1-c1csc([C@H](C)Nc2nc(C)nc3cc(OC)c(OC)cc23)c1 19.4

Give me measured inhibition, please, for this molecule: Cc1nc(-c2cn3c(n2)-c2ccc(-c4cnn(C(C)(C)C(N)=O)c4)cc2OCC3)n(C(C)C)n1 19.2

Give me measured inhibition, please, for this molecule: CC(=O)Nc1cccc(-n2c(=O)n(C3CC3)c(=O)c3c(Nc4ccc(I)cc4F)n(C)c(=O)c(C)c32)c1 18.1

====

molecular target: Methyl-CpG-binding domain protein 4 (Homo sapiens) (UniProt O95243); details: Compound Concentration 10.0 uM, Hit No;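 note: MBD4 activity read as fluorescence at 594 nm from cleavage and release of a quenched duplex DNA oligonucleotide, with APE1 coupled to incise the strand and raise turnover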
Sequence (O95243 whole entry, the tested form may be a part): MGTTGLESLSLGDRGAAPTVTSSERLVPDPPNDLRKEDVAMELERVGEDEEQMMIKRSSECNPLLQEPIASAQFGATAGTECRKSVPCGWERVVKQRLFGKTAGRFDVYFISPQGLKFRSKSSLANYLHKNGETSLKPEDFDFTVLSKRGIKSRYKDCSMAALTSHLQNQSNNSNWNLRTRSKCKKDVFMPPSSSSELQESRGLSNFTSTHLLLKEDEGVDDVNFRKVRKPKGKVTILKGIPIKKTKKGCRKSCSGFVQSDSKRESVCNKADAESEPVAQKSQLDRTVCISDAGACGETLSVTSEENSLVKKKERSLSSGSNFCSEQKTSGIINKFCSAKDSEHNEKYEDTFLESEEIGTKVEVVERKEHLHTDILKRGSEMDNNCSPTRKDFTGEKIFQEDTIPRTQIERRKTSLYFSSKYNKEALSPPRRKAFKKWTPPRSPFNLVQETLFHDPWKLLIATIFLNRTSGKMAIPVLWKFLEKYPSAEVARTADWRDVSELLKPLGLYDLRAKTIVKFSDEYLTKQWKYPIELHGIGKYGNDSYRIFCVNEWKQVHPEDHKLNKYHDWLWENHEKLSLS
Description: Inhibition of MBD4 by quantifying inhibition of MBD4-mediated cleavage and dissociation of quenched duplex DNA oligonucleotides, measured as fluorescence at 594 nm. To generate a functional strand incision and increase turn-over this assay is coupled to APE1.
endpoint_name: inhibition
Provide the measurement as a number trailed by its unit.

Solved cases below.
> print(dat)
                                   compound  value.reported
1  COc1ccccc1S(=O)(=O)Nc1ccc(C)cc1Oc1ccc2c(N)nccc2c1           10.2%
2  CN1CCN(c2cnc3c(C4CCN(C(=O)c5ccc(OC(F)(F)F)cc5N)CC4)ncnc3c2)CC1           22.6%

Give me measured inhibition, please, for this compound: N#Cc1ccc(NC(=O)Nc2ccccc2Br)c2nn[nH]c12 21%

Give me measured inhibition, please, for this compound: COc1nc2ccc([C@@](O)(c3ccc(Cl)cc3)c3cncn3C)cc2c(Cl)c1Cc1ccc(-n2cccn2)cc1 64.5%

Give me measured inhibition, please, for this compound: CCc1cccc(CC)c1NC(=O)c1nn(C)c2c1CCc1cnc(Nc3ccc(C(=O)NC4CCN(C)CC4)cc3OC(F)(F)F)nc1-2 12.9%

Give me measured inhibition, please, for this compound: COc1ccc2c(c1)O[C@H](c1ccc(OC)c(OC)c1)C[C@@H]2NC(=O)C1(c2ccc3c(c2)OC(F)(F)O3)CC1 67.5%

Give me measured inhibition, please, for this compound: CCCNC(=O)c1nnc2c(-c3c(F)cccc3OC)cccc2c1N 26.8%

====

biological target: UniProtKB Q969S2; details: Compound Concentration 10.0 uM, Hit No
Sequence (Q969S2 whole entry): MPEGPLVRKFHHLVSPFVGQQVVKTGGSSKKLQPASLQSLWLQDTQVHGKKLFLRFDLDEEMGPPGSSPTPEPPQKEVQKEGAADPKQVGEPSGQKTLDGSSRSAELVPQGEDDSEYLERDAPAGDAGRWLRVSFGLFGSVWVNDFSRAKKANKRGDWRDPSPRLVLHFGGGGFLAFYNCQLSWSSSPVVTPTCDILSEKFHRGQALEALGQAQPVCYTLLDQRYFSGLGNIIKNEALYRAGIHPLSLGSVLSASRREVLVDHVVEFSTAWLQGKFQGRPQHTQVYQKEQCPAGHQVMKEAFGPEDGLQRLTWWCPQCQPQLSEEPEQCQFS
Description: Inhibition of NEIL2 by quantifying inhibition of NEIL2-mediated cleavage and dissociation of quenched duplex DNA oligonucleotides, measured as fluorescence at 594 nm.
Where a SMILES comes first, the peptide text is derived from it. [ ]: non-standard residue; d: D form. The star is where a group is joined. dPhe(4-NHCONH2) = NC(=O)Nc1ccc(C[C@@H](N)C(=O)O)cc1; Dihydroorotyl(S) = O=C1C[C@@H](C(=O)*)NC(=O)N1; dPhe(4-Cl) = N[C@H](Cc1ccc(Cl)cc1)C(=O)O; Phe(4-NH2) = Nc1ccc(C[C@H](N)C(=O)O)cc1; d2Nal = N[C@H](Cc1ccc2ccccc2c1)C(=O)O; Lys(iPr) = CC(C)NCCCC[C@H](N)C(=O)O; d3Pal = N[C@H](Cc1cccnc1)C(=O)O
endpoint_name: inhibition (%)
Return type: number; implicit unit %.

compound	inhibition / %
CCN1CCC[C@H]1CNC(=O)c1c(OC)ccc(Br)c1OC	-5.97

For UniProtKB Q969S2, give inhibition of the listed compound: CC(=O)N[C@H](Cc1ccc2ccccc2c1)C(=O)N[C@H](Cc1ccc(Cl)cc1)C(=O)N[C@H](Cc1cccnc1)C(=O)N[C@@H](CO)C(=O)N[C@@H](Cc1ccc(NC(=O)[C@@H]2CC(=O)NC(=O)N2)cc1)C(=O)N[C@H](Cc1ccc(NC(N)=O)cc1)C(=O)N[C@@H](CC(C)C)C(=O)N[C@@H](CCCCNC(C)C)C(=O)N1CCC[C@H]1C(=O)N[C@H](C)C(N)=O (Ac-[d2Nal][dPhe(4-Cl)][d3Pal]S[Phe(4-NH2)](Dihydroorotyl(S))[dPhe(4-NHCONH2)]L[Lys(iPr)]P[dA]-NH2) 25.7
